I'd appreciate it if you could supply SIGNAL values for the items below.
SYSTEM_TESTED: alkaline phosphatase (Bos taurus, UniProt P19111)
Sequence (P19111 20-506 limits assumed): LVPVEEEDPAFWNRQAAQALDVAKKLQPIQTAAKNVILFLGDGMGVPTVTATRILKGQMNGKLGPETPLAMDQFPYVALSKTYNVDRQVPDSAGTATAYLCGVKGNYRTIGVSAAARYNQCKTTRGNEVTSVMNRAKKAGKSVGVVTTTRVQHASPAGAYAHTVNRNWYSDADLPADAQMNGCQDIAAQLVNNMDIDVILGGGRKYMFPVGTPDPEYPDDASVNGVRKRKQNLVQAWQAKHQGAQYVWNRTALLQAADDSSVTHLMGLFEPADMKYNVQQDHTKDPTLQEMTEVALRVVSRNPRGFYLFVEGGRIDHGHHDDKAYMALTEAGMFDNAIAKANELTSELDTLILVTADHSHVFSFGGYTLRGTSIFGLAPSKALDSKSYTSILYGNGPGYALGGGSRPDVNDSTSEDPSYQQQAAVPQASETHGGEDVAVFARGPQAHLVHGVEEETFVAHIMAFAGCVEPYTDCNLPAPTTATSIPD
ASSAY_SUMMARY: Chemiluminescent signal and signal:background with enhancer polymers (Example XVII)
Type: biochemical
SETTINGS: polymer NONE; time 0 (background, before enzyme)
// no unit string in output, number only

Lookup result for COC1(c2cccc(OP(=O)(O)O)c2)OOC12C1CC3CC2CC(O)(C3)C1 (single isomer, unassigned) [B-OH-AMPPD] ; measured SIGNAL: 126.3

Lookup result for COC1(c2cccc(OP(=O)(O)O)c2)OOC12C1CC3CC2CC(O)(C3)C1 (single isomer, unassigned) [A-OH-AMPPD] ; measured SIGNAL: 87.0

Lookup result for COC1(c2cccc(OP(=O)(O)O)c2)OOC12C1CC3CC2CC(Cl)(C3)C1 (stereo not shown) [Cl-AMPPD] ; measured SIGNAL: 85.3

Lookup result for COC1(c2cccc(OP(=O)(O)O)c2)OOC12C1CC3CC(C1)CC2C3 (stereo not shown) [AMPPD, reference compound] ; measured SIGNAL: 172.6

###

I'd appreciate it if you could supply S/N values for the items below.
SYSTEM_TESTED: alkaline phosphatase (Bos taurus)
ASSAY_SUMMARY: Chemiluminescent signal and signal:background with enhancer polymers (Example XVII)
Assay type: biochemical
SETTINGS: polymer SAPPHIRE; 5 min
// no unit string in output, number only

Lookup result for COC1(c2cccc(OP(=O)(O)O)c2)OOC12C1CC3CC2CC(O)(C3)C1 (single isomer, unassigned) [A-OH-AMPPD] ; measured S/N: 244.5

Lookup result for COC1(c2cccc(OP(=O)(O)O)c2)OOC12C1CC3CC2CC(Cl)(C3)C1 (stereo not shown) [Cl-AMPPD] ; measured S/N: 371.6

Lookup result for COC1(c2cccc(OP(=O)(O)O)c2)OOC12C1CC3CC(C1)CC2C3 (stereo not shown) [AMPPD, reference compound] ; measured S/N: 159.3

Lookup result for COC1(c2cccc(OP(=O)(O)O)c2)OOC12C1CC3CC2CC(O)(C3)C1 (single isomer, unassigned) [B-OH-AMPPD] ; measured S/N: 78.6

###

SYSTEM_TESTED: alkaline phosphatase (Bos taurus)
ASSAY_SUMMARY: Chemiluminescent signal and signal:background with enhancer polymers (Example XVII)
Format: biochemical
SETTINGS: polymer DAA TMQ; 20 min
Method: Four sets of three tubes each, each tube in each set containing 450 μl of a 0.4 mM aqueous solution of one of the four 1,2-dioxetanes being compared in 0.1M diethanolamine containing 1 mM magnesium chloride, 0.02% sodium azide and 0.1% of the enhancer polymer, pH 10.0 (substrate buffer) were prepared and the background signal from each tube measured using a Berthold LB 952T luminometer (Berthold Instruments; Wildbad, Federal Republic of Germany). […]
RECORDED_METRIC: S/N
// no unit string in output, number only

Lookup result for COC1(c2cccc(OP(=O)(O)O)c2)OOC12C1CC3CC(C1)CC2C3 (stereo not shown) [AMPPD, reference compound] ; measured S/N: 83.1

Lookup result for COC1(c2cccc(OP(=O)(O)O)c2)OOC12C1CC3CC2CC(O)(C3)C1 (single isomer, unassigned) [A-OH-AMPPD] ; measured S/N: 69.7

Lookup result for COC1(c2cccc(OP(=O)(O)O)c2)OOC12C1CC3CC2CC(Cl)(C3)C1 (stereo not shown) ; measured S/N: 159.9

Lookup result for COC1(c2cccc(OP(=O)(O)O)c2)OOC12C1CC3CC2CC(O)(C3)C1 (single isomer, unassigned) [B-OH-AMPPD] ; measured S/N: 49.0
